Biological target: Sodium- and chloride-dependent betaine transporter (Homo sapiens, UniProt P48065)
Sequence (P48065 whole entry): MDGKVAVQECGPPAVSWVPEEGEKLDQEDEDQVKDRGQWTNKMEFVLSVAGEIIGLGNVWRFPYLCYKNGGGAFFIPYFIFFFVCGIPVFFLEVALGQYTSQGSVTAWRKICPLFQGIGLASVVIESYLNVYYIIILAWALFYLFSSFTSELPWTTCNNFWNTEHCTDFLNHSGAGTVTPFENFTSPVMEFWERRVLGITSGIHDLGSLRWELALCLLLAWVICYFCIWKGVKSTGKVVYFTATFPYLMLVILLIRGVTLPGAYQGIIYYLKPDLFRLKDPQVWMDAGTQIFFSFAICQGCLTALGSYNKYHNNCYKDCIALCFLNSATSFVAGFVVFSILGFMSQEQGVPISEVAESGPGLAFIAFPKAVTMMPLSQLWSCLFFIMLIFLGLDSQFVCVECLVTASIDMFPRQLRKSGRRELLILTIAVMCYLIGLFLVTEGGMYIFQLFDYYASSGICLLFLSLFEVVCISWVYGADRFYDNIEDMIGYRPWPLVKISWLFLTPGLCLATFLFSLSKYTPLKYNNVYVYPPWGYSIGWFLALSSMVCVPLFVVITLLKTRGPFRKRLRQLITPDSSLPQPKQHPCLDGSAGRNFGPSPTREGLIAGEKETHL
Test: Inhibition of human BGT1 expresses in tsA201 cells assessed as reduction in [3H]GABA uptake after 3 mins by scintillation counting method
Type: cell-based
Settings: read-out: IC50
Below, each entry is listed alongside its reported IC50.

{"smiles.code": "O=C(NC1CCN(Cc2ccccc2)CC1)c1cccc(C(F)(F)F)c1", "IC50": "170 µM"}
{"smiles.code": "N#Cc1ccc(CN2CCC(NC(=O)c3ccc(Cl)cc3Cl)CC2)cc1", "IC50": "> 50 µM"}
{"smiles.code": "O=C(NC1CCN(Cc2ccccn2)CC1)c1ccc(Cl)cc1Cl", "IC50": "> 1000 µM"}
{"smiles.code": "O=C(NC1CCN(C/C=C/c2ccccc2)CC1)c1ccc(Cl)cc1Cl", "IC50": "> 100 µM"}
{"smiles.code": "O=C(NC1CCN(Cc2ccccc2)CC1)c1ccccc1", "IC50": "290 µM"}
{"smiles.code": "O=C(NC1CCN(Cc2ccc3ccccc3c2)CC1)c1ccc(Cl)cc1Cl", "IC50": "> 50 µM"}
